Let's look at some compounds and their measured IC50.
- Test system: Pf3D7 chloroquine-sensitive strain
- experiment-notes: SYBR green I based fluorescence growth inhibition assay, Pf3D7
- Type: cell-based, Plasmodium falciparum
- study-conditions: Plasmodium falciparum; chloroquine-sensitive strain; synchronized late trophozoite parasites; SYBR Green; triplicate, mean ± SD; read-out: IC50 (µM) against Pf3D7
// return numeric value only (unit: µM, not printed)

- compound: "COc1ccc(C(OC[C@@H]2CN(C[C@H]3O[C@@H](n4cc(C)c(=O)[nH]c4=O)C[C@@H]3O)C[C@H](n3cc(C)c(=O)[nH]c3=O)O2)(c2ccccc2)c2ccc(OC)cc2)cc1 [Compound 3]"
  experimental-endpoint: "IC50"
  meas-value: 1.19
- compound: "CC(=O)OC[C@H]1O[C@@H](SC[C@@H]2O[C@@H](n3cnc4c(NC(c5ccccc5)(c5ccccc5)c5ccccc5)ncnc43)[C@@H]3OC(C)(C)O[C@@H]32)[C@H](OC(C)=O)[C@@H](OC(C)=O)[C@@H]1OC(C)=O [Compound 7]"
  experimental-endpoint: "IC50"
  meas-value: 0.92
- compound: "CC(=O)N[C@@H]1[C@@H](OC(C)=O)[C@H](OC(C)=O)[C@@H](COC(C)=O)O[C@H]1SC[C@@H]1[C@@H](O[Si](C)(C)C(C)(C)C)[C@H](n2cc(C)c(=O)[nH]c2=O)O[C@@H]1CO[Si](C)(C)C(C)(C)C [Compound 18]"
  experimental-endpoint: "IC50"
  meas-value: 1.15
- compound: "Cc1cn([C@@H]2O[C@H](CN3C[C@@H](COC(c4ccccc4)(c4ccccc4)c4ccccc4)O[C@@H](n4ccc(=O)[nH]c4=O)C3)[C@H]3OC(C)(C)O[C@H]32)c(=O)[nH]c1=O [Compound 1]"
  experimental-endpoint: "IC50"
  meas-value: 1.31
- compound: "CC(=O)O[C@@H]1[C@@H](OC(C)=O)[C@H](SC[C@@H]2[C@@H](O[Si](C)(C)C(C)(C)C)[C@H](n3ccc(=O)[nH]c3=O)O[C@@H]2CO[Si](C)(C)C(C)(C)C)OC[C@H]1OC(C)=O [Compound 17]"
  experimental-endpoint: "IC50"
  meas-value: 1.33
- compound: "CC(=O)OC[C@H]1O[C@@H](SC[C@@H]2[C@@H](O[Si](C)(C)C(C)(C)C)[C@H](n3ccc(=O)[nH]c3=O)O[C@@H]2CO[Si](C)(C)C(C)(C)C)[C@H](OC(C)=O)[C@@H](OC(C)=O)[C@H]1OC(C)=O [Compound 16]"
  experimental-endpoint: "IC50"
  meas-value: 1.78

Now, please, on to the next compound.
Form field: reported IC50 of Nc1ncnc2c1ncn2[C@@H]1O[C@H](CN2C[C@@H](CO)O[C@@H](n3cnc4c(=O)[nH]cnc43)C2)[C@@H](O)[C@H]1O [Compound 5]
1.34

Entry source: paper PMC10382589
